Data provenance is patent US10138255B2.

- Test system: HIV-1 (H9IIIB strain)
- experimental.protocol: Cell-Based HIV Infection Assay Using a Reporter (MT4-GFP cells)
- test.settings: Human immunodeficiency virus 1, inflection point (IP) of viral growth inhibition; MT4-GFP cells infected with HIV-1 H9IIIB; 50% normal human serum; mean of at least two independent experiments; read-out: Cell Based IP (50% NHS)
pEC50: −log10 of the molar value.
Reported pEC50 values follow for various compounds
reported.property: pEC50

• N[C@H](C(=O)Nc1cccc(F)c1CC[C@H]1CN[C@@H]2CCCS(=O)(=O)N1C2)[C@@H](c1ccc(Cl)cc1)c1csc(C(F)(F)F)n1 = 8.04
• N[C@H](C(=O)Nc1c(F)ccc(F)c1CC[C@H]1CN[C@@H]2CCCS(=O)(=O)N1C2)[C@@H](c1ccc(Cl)cc1)C1CCOCC1 = 7.66
• COC(=O)N[C@H](C(=O)Nc1cccc(F)c1CCC1CNC2CCCS(=O)(=O)N1C2)[C@@H](c1ccc(Cl)cc1)c1ccnc(C(F)(F)F)c1 (stereo partly shown) = 8.06
• COC(=O)N[C@H](C(=O)Nc1cncc(F)c1CC[C@H]1CN[C@@H]2CCCS(=O)(=O)N1C2)[C@@H](c1ccc(Cl)cc1)C1CCOCC1 = 7.05
• COC(=O)N[C@H](C(=O)N[C@H]1CCCC[C@@H]1CC[C@H]1CN[C@@H]2CCCS(=O)(=O)N1C2)[C@@H](c1ccc(Cl)cc1)c1cc(F)cc(F)c1 = 7.62
• CO[C@H]1CC[C@H]([C@H](c2ccc(F)cc2)[C@H](N)C(=O)N[C@H]2CCCC[C@@H]2CC[C@H]2CN[C@@H]3CCCS(=O)(=O)N2C3)CC1 = 7.35
• Cn1nc([C@H](c2ccc(Cl)c(F)c2)[C@H](N)C(=O)Nc2cccc(F)c2CC[C@H]2CN[C@@H]3CCCS(=O)(=O)N2C3)cc1C(F)(F)F = 8.01
• COC(=O)N[C@H](C(=O)Nc1cccc(F)c1CC[C@H]1CN[C@@H]2CCCS(=O)(=O)N1C2)[C@@H](c1ccc(F)cc1)c1cnc(C(F)(F)F)nc1 = 7.82
• COC(=O)N[C@H](C(=O)N[C@H]1CCC[C@@H]1CC[C@H]1CN[C@@H]2CCCS(=O)(=O)N1C2)[C@@H](c1ccc(Cl)cc1)C1CCOCC1 = 7.23
• N[C@H](C(=O)N[C@H]1CCC[C@@H]1CC[C@H]1CN[C@@H]2CCCS(=O)(=O)N1C2)[C@@H](c1ccc(F)cc1)c1cc(F)cc(F)c1 = 7.57
• COC(=O)N[C@H](C(=O)Nc1cccc(F)c1CC[C@H]1CN[C@@H]2CCCS(=O)(=O)N1C2)[C@]1(c2ccc(F)cc2)CC[C@@H](OC)CC1 = 7.80
• COC(=O)N[C@H](C(=O)Nc1cccc(F)c1CCC1CNC2CCCS(=O)(=O)N1C2)[C@H](c1cncc(Cl)c1)c1ccc(Cl)c(F)c1 (stereo partly shown) = 7.74
• CS(=O)(=O)N1CCC(c2ccc(Cl)cc2)([C@H](N)C(=O)Nc2cccc(F)c2CC[C@H]2CN[C@@H]3CCCS(=O)(=O)N2C3)CC1 = 6.82
• CC(C)Oc1cnc([C@H](c2ccc(Cl)cc2)[C@H](N)C(=O)Nc2cccc(F)c2CC[C@H]2CN[C@@H]3CCCS(=O)(=O)N2C3)cn1 = 8.38
• COC(=O)N[C@H](C(=O)N[C@H]1CCC[C@@H]1CC[C@H]1CN[C@@H]2CCCS(=O)(=O)N1C2)[C@@H](c1ccc(Cl)cc1)C1CCOC(C)(C)C1 (stereo partly shown) = 7.64
• COC(=O)N[C@H](C(=O)N[C@H]1CCC[C@@H]1CC[C@H]1CN[C@@H]2CCCS(=O)(=O)N1C2)[C@H](c1cncc(C(F)(F)F)c1)c1ccc(Cl)c(F)c1 = 7.51
• COC(=O)N[C@@H](C(=O)N[C@H]1CCC[C@@H]1CC[C@H]1CN[C@@H]2CCCS(=O)(=O)N1C2)[C@@H](c1ccc(Cl)cc1)C1CCN(C(=O)OCc2ccccc2)CC1 = 5.89
• N[C@H](C(=O)Nc1cncc(F)c1CC[C@H]1CN[C@@H]2CCCS(=O)(=O)N1C2)[C@@H](c1ccc(Cl)cc1)C1CCCC(F)(F)C1 (stereo partly shown) = 8.24
• N[C@H](C(=O)Nc1cccc(F)c1CC[C@H]1CNC2CCCS(=O)(=O)N1C2)C1(c2ccc(Cl)cc2)CCOCC1 (stereo partly shown) = 7.00
• COC(=O)N[C@H](C(=O)N[C@H]1CCC[C@@H]1CC[C@H]1CN[C@@H]2CCCS(=O)(=O)N1C2)[C@H](c1cncc(F)c1)c1ccc(Cl)c(F)c1 = 7.24
• N[C@H](C(=O)Nc1cccc(F)c1CCC1CNC2CCCS(=O)(=O)N1C2)[C@@H](c1ccc(Cl)cc1)C1CC(F)(F)C1 (stereo partly shown) = 7.48
• COC(=O)N[C@H](C(=O)Nc1ccc(F)c(F)c1CC[C@H]1CN[C@@H]2CCCS(=O)(=O)N1C2)[C@@H](c1ccc(F)cc1)C1CCOC(C)(C)C1 (stereo partly shown) = 7.89
